system: bedstraw (Galium aparine); assay: Test B pre-/postemergence; type: in vivo; conditions: Rate 125 g/ha, Postemergence
METRIC: Plant response rating, Bedstraw

# annotated cases, reported Plant response rating, Bedstraw shown
substance_smiles=CCc1cnc(-c2ccc(C(F)(F)F)cc2)nc1Cc1cccc(OC(F)(F)F)c1 endpoint_result=9
substance_smiles=Cc1cnc(-c2ccc(C(F)(F)F)cc2)nc1Cn1ccc(C(F)(F)F)n1 endpoint_result=10
substance_smiles=Cc1cnc(-c2ccc(Cl)c(Cl)c2)nc1Cc1cccc(C#N)c1 endpoint_result=7
substance_smiles=Cc1cnc(-n2cnc(C(F)(F)F)n2)nc1Cc1cccc(C(F)(F)F)c1 endpoint_result=10

// next entry
Lookup result for CCc1cnc(-n2ccc(C(F)(F)F)n2)nc1Cc1cccc(C(F)(F)F)c1 ; measured Plant response rating, Bedstraw: 9

====

tested on: broadleaf signalgrass (Brachiaria decumbens); test: Test B pre-/postemergence; assay type: in vivo; conditions: Rate 125 g/ha, Preemergence
METRIC: B. signalgrass plant response rating
Give a plain numeric answer without units written out.

Below, 6 compounds whose answers are already recorded.
compound="Cc1cnc(-c2ccc(C(F)(F)F)cc2)nc1C(C#N)c1cccc(C(F)(F)F)c1 (racemic)" metric="B. signalgrass plant response rating" endpoint_result=7
compound=CCc1cnc(-n2cnc(C(F)(F)F)n2)nc1Cc1cccc(OC(F)(F)F)c1 metric="B. signalgrass plant response rating" endpoint_result=1
compound=Cc1cnc(-c2ccccc2F)nc1Cc1cccc(C#N)c1 metric="B. signalgrass plant response rating" endpoint_result=0
compound=Cc1cnc(-c2ccccc2F)nc1Cc1cccc(C(F)(F)F)c1 metric="B. signalgrass plant response rating" endpoint_result=0
compound=Cc1cnc(-c2ccc(Cl)cc2)nc1Cc1cccc(C#N)c1 metric="B. signalgrass plant response rating" endpoint_result=1
compound=CCc1cnc(-n2cnc(C(F)(F)F)c2)nc1Cc1cccc(OC(F)(F)F)c1 metric="B. signalgrass plant response rating" endpoint_result=1

Observed B. signalgrass plant response rating, broadleaf signalgrass (Brachiaria decumbens), Cc1cnc(-c2ccc(Cl)cc2)nc1Cn1ccc(C(F)(F)F)n1 : 4

Record for Cc1cnc(-c2ccc(F)c(Cl)c2)nc1Cc1cccc(C(F)(F)F)c1 under target or system broadleaf signalgrass (Brachiaria decumbens): B. signalgrass plant response rating reported as 2

# lookup: Cc1cnc(-c2ccc(F)cc2F)nc1Cc1cccc(C(F)(F)F)c1 on broadleaf signalgrass (Brachiaria decumbens), B. signalgrass plant response rating = 9

broadleaf signalgrass (Brachiaria decumbens) assay, compound Cc1cnc(-c2ccc(C(F)(F)F)cc2)nc1Cc1cccc(C#N)c1 , recorded B. signalgrass plant response rating = 6

Item COc1cnc(-n2ccc(C(F)(F)F)n2)nc1Cc1cccc(C(F)(F)F)c1 was tested on broadleaf signalgrass (Brachiaria decumbens); the reported B. signalgrass plant response rating is 0

Form field B. signalgrass plant response rating for item Cc1cnc(-c2ccc(C(F)(F)F)cc2)nc1Cn1nc(C(F)(F)F)cc1C on broadleaf signalgrass (Brachiaria decumbens): 8

Observed B. signalgrass plant response rating on broadleaf signalgrass (Brachiaria decumbens), entry Cc1cnc(-c2ccc(C#N)cc2)nc1Cc1cccc(C#N)c1 , equals 0

Reading of B. signalgrass plant response rating for Cc1cnc(-c2ccc(C(F)(F)F)cc2)nc1C(Cl)c1cccc(C(F)(F)F)c1 (racemic) with broadleaf signalgrass (Brachiaria decumbens): 3

Lab entry: broadleaf signalgrass (Brachiaria decumbens) assay, compound COC(c1cccc(C(F)(F)F)c1)c1nc(-c2ccc(C(F)(F)F)cc2)ncc1C (racemic) , B. signalgrass plant response rating = 1

Item Cc1cnc(-c2ccc(C(F)(F)F)cc2)nc1C(C)c1cccc(C(F)(F)F)c1 (racemic) was tested on broadleaf signalgrass (Brachiaria decumbens); the reported B. signalgrass plant response rating is 0

====

test system: wild oat (Avena fatua); experiment: Test B pre-/postemergence; format: in vivo; conditions: Rate 62 g/ha, Postemergence
METRIC: Plant response rating, Wild oats
Form: value (number only, do not type unit).

molecule="Cc1cnc(-c2ccc(C(F)(F)F)cc2)nc1C(Cl)c1cccc(C(F)(F)F)c1 (racemic)" endpoint_result=4
molecule="Cc1cnc(-c2ccc(C(F)(F)F)cc2)nc1C(C)c1cccc(C(F)(F)F)c1 (racemic)" endpoint_result=0
molecule=Cc1cnc(-c2cccc(C(F)(F)F)c2)nc1Cc1cccc(C(F)(F)F)c1 endpoint_result=2
molecule=Cc1cnc(-c2ccc(F)c(Cl)c2)nc1Cc1cccc(C(F)(F)F)c1 endpoint_result=3

Now look at this entry.
Item: Cc1cnc(-c2ccc(Cl)cc2)nc1Cn1ccc(C(F)(F)F)n1 | Plant response rating, Wild oats: 0

====

system: bedstraw (Galium aparine); experiment: Test B pre-/postemergence; type: in vivo; conditions: Rate 62 g/ha, Preemergence
This section presents compounds with their documented Bedstraw plant response rating values.
The answer should be written as a number, with no unit following it.

In the examples that follow, each entry is paired with its recorded Bedstraw plant response rating.
compound="Cc1cnc(-c2ccc(C(F)(F)F)cc2)nc1Cn1cc(I)cn1 [Compound 12]" experimental_system="bedstraw (Galium aparine)" endpoint_result=2
compound="Cc1cnc(-c2ccc(C(F)(F)F)cc2)nc1Cc1cccc(C(F)(F)F)c1 [Example 1]" experimental_system="bedstraw (Galium aparine)" endpoint_result=8
compound="Cc1cnc(-c2ccc(C(F)(F)F)cc2)nc1Cn1ccc(C(F)(F)C(F)(F)F)n1 [Compound 14]" experimental_system="bedstraw (Galium aparine)" endpoint_result=0
compound="Cc1cnc(-n2cnc(C(F)(F)F)n2)nc1Cn1ccc(C(F)(F)F)n1 [Compound 51]" experimental_system="bedstraw (Galium aparine)" endpoint_result=8
compound="Cc1cnc(-c2cccc(C(F)(F)F)c2)nc1Cc1cccc(C#N)c1 [Compound 39]" experimental_system="bedstraw (Galium aparine)" endpoint_result=0
compound="Cc1cnc(-n2cnc(C(F)(F)F)n2)nc1Cc1cccc(C(F)(F)F)c1 [Compound 43]" experimental_system="bedstraw (Galium aparine)" endpoint_result=8
compound="Cc1cnc(-c2ccc(C(F)(F)F)cc2)nc1C(C#N)c1cccc(C(F)(F)F)c1 (racemic) [Compound 17]" experimental_system="bedstraw (Galium aparine)" endpoint_result=1
compound="Cc1cnc(-c2ccc(C(F)(F)F)cc2)nc1C(Cl)c1cccc(C(F)(F)F)c1 (racemic) [Compound 21]" experimental_system="bedstraw (Galium aparine)" endpoint_result=0

We now examine a further compound.
Reported Bedstraw plant response rating for Cc1cnc(-c2ccc(Cl)c(Cl)c2)nc1Cc1cccc(C#N)c1 [Compound 38] was 0

====

Reported Giant foxtail plant response rating is given for each of the following compounds.
test system: giant foxtail (Setaria faberii); test: Test B pre-/postemergence; assay type: in vivo; conditions: Rate 125 g/ha, Postemergence
Answer with a number only.

compound="Cc1cnc(-n2cnc(C(F)(F)F)c2)nc1C(=O)c1cccc(OC(F)(F)F)c1 [Compound 63]" endpoint_result=2
compound="O=C(c1cccc(C(F)(F)F)c1)c1ccnc(-c2ccc(F)cc2F)n1 [Compound 76]" endpoint_result=0
compound="Cc1cnc(-c2ccc(C(F)(F)F)cc2)nc1C(=O)c1cccc(C(F)(F)F)c1 [Compound 73]" endpoint_result=8
compound="Cc1cnc(-n2cnc(C(F)(F)F)n2)nc1Cc1cccc(C(F)(F)F)c1 [Compound 43]" endpoint_result=9
compound="Cc1cnc(-c2ccc(F)cc2F)nc1Cc1cccc(C(F)(F)F)c1 [Compound 31]" endpoint_result=3

Record summary for Cc1cnc(-c2ccc(C#N)cc2)nc1Cc1cccc(C(F)(F)F)c1 [Compound 30] : reported Giant foxtail plant response rating = 1

====

Tested on: momingglory (Ipomoea hederacea)
Assay: Test B pre-/postemergence
Format: in vivo
Conditions: Rate 500 g/ha, Postemergence
Experimental: […] At the same time, these crop and weed species were also treated with postemergence applications of test chemicals formulated in the same manner. […] Treated plants and controls were maintained in a greenhouse for twelve to sixteen days, after which all species were compared to controls and visually evaluated. […]
METRIC: Plant response rating, Morningglory
Respond numerically, and do not add a unit to the figure.

// Plant response rating, Morningglory lookup, molecule = Cc1cnc(-n2cnc(C(F)(F)F)c2)nc1C(=O)c1cccc(C(F)(F)F)c1 , result: 9

What the record says about Cc1cnc(-n2ccc(C(F)(F)F)n2)nc1C(=O)c1cccc(OC(F)(F)F)c1 : Plant response rating, Morningglory is 10

Reported Plant response rating, Morningglory ( Cc1cnc(-c2ccc(C(F)(F)F)cc2)nc1Cn1cnc(C(F)(F)F)c1 ) = 9

Recorded result, Cc1cnc(-n2ccc(C(F)(F)C(F)(F)F)n2)nc1C(=O)c1cccc(OC(F)(F)F)c1 , Plant response rating, Morningglory: 10

So, Cc1cnc(-n2cnc(C(F)(F)F)c2)nc1C(=O)c1cccc(OC(F)(F)F)c1 ? Its Plant response rating, Morningglory was 10

Entry under test: Cc1cnc(-c2ccc(Cl)cc2)nc1Cn1ccc(C(F)(F)F)n1 . Its Plant response rating, Morningglory was 8

====

Tested on: wheat (Triticum aestivum)
Assay: Test B pre-/postemergence
Type: in vivo
Settings: Rate 62 g/ha, Postemergence
Method: […] At the same time, these crop and weed species were also treated with postemergence applications of test chemicals formulated in the same manner. […] Treated plants and controls were maintained in a greenhouse for twelve to sixteen days, after which all species were compared to controls and visually evaluated. […]
Plant response rating, Wheat values for the compounds below.
Answer with a bare number; do not write a unit.

The compound Cc1cnc(-c2ccc(Cl)c(Cl)c2)nc1Cc1cccc(C(F)(F)F)c1 , when measured on wheat (Triticum aestivum), yielded Plant response rating, Wheat of 3

Record Cc1cnc(-c2ccc(C(F)(F)F)cc2)nc1Cc1cccc(OC(F)(F)F)c1 has wheat (Triticum aestivum) Plant response rating, Wheat equal to 4

Tested on wheat (Triticum aestivum): Cc1cnc(-c2ccc(F)c(Cl)c2)nc1Cc1cccc(C(F)(F)F)c1 . Observed Plant response rating, Wheat: 2

Known value: wheat (Triticum aestivum) Plant response rating, Wheat of the compound Cc1cnc(-c2ccc(C(F)(F)F)cc2)nc1C(Cl)c1cccc(C(F)(F)F)c1 (racemic) equals 4
